- ASSAY_REMARKS: BET inhibitor-based combinations targeting novel dependencies in MECOM-rearranged (r) AML: AML-194 cell line (AID 2202237; note: nearly all actives have a fitted effect of over 40% in size)
- SETUP_CONDITIONS: AML-194 (MECOM-r AML) viability, CellTiter-Glo, 48 h; series mostly up to 46 µM
Results filed as inconclusive are left out. Active and inactive are the calls of the source. Calls come from the whole dose curve; as a rule, active = well fitted inhibition curve with a large enough effect; inconclusive = small, poorly fitted or top-dose-only effect; inactive = flat fitted curve, though single readings scatter.
Labels: TRUE for active, FALSE for inactive

COMPOUND	LABEL
COc1ccc2c(c1)[C@]1(C[C@H]1c1ccc3c(/C=C/c4ccc(CN5C[C@@H](C)O[C@@H](C)C5)cc4)n[nH]c3c1)C(=O)N2	TRUE
O=C1NC(=O)[C@@H](c2c[nH]c3ccccc23)[C@H]1c1cn2c3c(cccc13)CCC2	TRUE
CN1N=C(N)c2cn([C@@H]3O[C@H](COP(=O)(O)O)[C@@H](O)[C@@H]3O)c3ncnc1c23	TRUE
CC(C)(O)c1coc(S(=O)(=O)NC(=O)Nc2c3c(cc4c2CCC4)CCC3)c1	FALSE
C=CCNc1c(O)cc2c(O)c1C[C@@H](C)C[C@H](OC)[C@H](O)[C@@H](C)/C=C(/C)[C@H](OC(N)=O)[C@@H](OC)/C=C\C=C(\C)C(=O)N2	TRUE
Cc1ccc(-n2nc(C(C)(C)C)cc2NC(=O)NCc2cc(F)ccc2Oc2ccc3c(cnn3CCO)c2)cc1	TRUE
Cc1nnn(C)c1-c1cnc2c3ccc(C(C)(C)O)cc3n([C@H](c3ccccc3)C3CCOCC3)c2c1	TRUE
CC/C(=C(/c1ccc(O)cc1)c1ccc(OCCNC)cc1)c1ccccc1	TRUE
COc1ccc2c(c1)C(c1ccc(F)cc1)=C(CN1CCCC1)CO2	FALSE
C=C(c1ccc(C(=O)O)cc1)c1cc2c(cc1C)C(C)(C)CCC2(C)C	FALSE
COc1ccccc1-c1cccc(-c2c(O)c3cc(C#N)c(Cl)cc3[nH]c2=O)c1	FALSE
OC1CCC(Oc2cccc3cnc(Nc4ccc5nc[nH]c5c4)nc23)CC1 (stereo not drawn)	TRUE
COc1ccc2nc(S(=O)Cc3ncc(C)c(OC)c3C)[nH]c2c1 (stereo not drawn)	FALSE
CC(=O)Nc1ccc(C(=O)NC(C)(C)C)cc1	FALSE
CNC(=O)CCc1cc(-c2ccc(-c3ccc(C(F)(F)F)cc3)cc2)n(-c2ccc(N3CCNCC3)cc2)n1	TRUE
CN[C@H]1CN(c2ccc3c(=O)c(C(=O)O)cn(-c4nccs4)c3n2)C[C@@H]1OC	TRUE
COc1ccc(S(=O)(=O)N(CCO)c2ccccc2CN(C)C/C=C/c2ccc(Cl)cc2)cc1	TRUE
O=C(Nc1cnccc1Cl)N1CCN(Cc2ccc3c(c2)OC(F)(F)O3)CC1	FALSE

###

- ASSAY_REMARKS: qHTS for Inhibitors of the Aldehyde Dehydrogenase Family (ALDH1A2, ALDH1A3, ALDH2, ALDH3A1) (AID 2061307); note: nearly all actives have a fitted effect of over 50% in size
- SETUP_CONDITIONS: ALDH inhibition qHTS; series mostly up to 50.3 µM
Inconclusive results are not listed. Calls of active or inactive are those of the source. Calls come from the whole dose curve; as a rule, active = well fitted inhibition curve with a large enough effect; inconclusive = small, poorly fitted or top-dose-only effect; inactive = no such curve, though single readings can be large or run the other way.
Labels: 1 (active), -1 (inactive)

COMPOUND	LABEL
COc1ccc(-n2nnc(-c3nc(-c4cccs4)no3)c2N)cc1OC	-1
COc1ccc(C2Nc3ccccc3C(=O)N2C2CCCC2)cc1COc1ccc(NC(C)=O)cc1 (centres undefined)	1
COc1ccc(Cl)cc1NC(=O)c1nn(-c2ccc(C)cc2)c(=O)n(C)c1=O	-1
COc1cccc(-c2nc(-c3ccc(C(=O)O)cc3)no2)c1	1
CCOC(=O)N1CCN(Cc2nc3cc(NC(=O)CC(C)C)ccc3n2C(C)C)CC1	-1
Cc1ccc(NC(=O)c2nc3nc(C)cc(C)n3n2)c(F)c1	-1
NCC(=O)Nc1cccc(-c2nn3c(=O)cc(N4CCNCC4)nc3s2)c1	-1
C=C1[C@@H](OC(C)=O)CC[C@@]2(C)[C@@H](OC(C)=O)[C@H](OC(C)=O)C3=C(C)C[C@H](OC(=O)C(C)CC)[C@@H]([C@@H](OC(C)=O)[C@H]12)C3(C)C (some centres undefined)	-1
O=C(Nc1ccc(C(=O)N2CCCC2)cc1)c1ccccc1F	1

###

- ASSAY_REMARKS: BET inhibitor-based combinations targeting novel dependencies in MECOM-rearranged (r) AML: HNT-34 cell line (AID 2202234); note: nearly all actives have a fitted effect of over 35% in size
- SETUP_CONDITIONS: HNT-34 AML viability, CellTiter-Glo luminescence, 48 h; series mostly up to 46 µM
Inconclusive results are not listed. The source made the active and inactive calls. Calls come from the whole dose curve; as a rule, active = well fitted inhibition curve with a large enough effect; inconclusive = small, poorly fitted or top-dose-only effect; inactive = no such curve, though single readings can be large or run the other way.
Labels: 1 (active), -1 (inactive)

COMPOUND	LABEL
COc1cc(OC)c(/C=C/S(=O)(=O)Cc2ccc(OC)c(OP(=O)(O)O)c2)c(OC)c1	1
CC(=O)O[C@H]1C(=O)[C@@]2(C)C([C@H](OC(=O)c3ccccc3)[C@]3(O)C[C@H](OC(=O)[C@H](O)[C@@H](NC(=O)c4ccccc4)c4ccccc4)C(C)=C1C3(C)C)[C@]1(OC(C)=O)CO[C@@H]1C[C@@H]2O (stereo partly drawn)	1
CCS(=O)(=O)Nc1ccc2[nH]c(O)c(C(=Nc3ccc(CN4CCCCC4)cc3)c3ccccc3)c2c1	1
NC(=O)/C(=C/n1cnc(-c2cc(C(F)(F)F)cc(C(F)(F)F)c2)n1)c1cncnc1	1
CC(C)(NS(=O)(=O)c1ccc2c(Cl)cnc(N=C(N)N)c2c1)C(=O)O	-1
O=C(Nc1ncc(SCCN2CCCC2)s1)[C@]1(c2ccc(S(=O)(=O)C3CC3)cc2)C[C@H]1C1CCCCC1	1
CC(C)(O)c1coc(S(=O)(=O)NC(=O)Nc2c3c(cc4c2CCC4)CCC3)c1	-1
CN1CCN(c2cccc(Nc3nc4c(-c5ccc(S(C)(=O)=O)cc5)cccn4n3)c2)CC1	1

###

- ASSAY_REMARKS: BET inhibitor-based combinations targeting novel dependencies in MECOM-rearranged (r) AML: AML-194 cell line (AID 2202237)
- SETUP_CONDITIONS: AML-194 (MECOM-r AML) viability, CellTiter-Glo, 48 h; series mostly up to 46 µM
Inconclusive results are not listed. Calls of active or inactive are those of the source. Calls follow the shape of the dose curve; as a rule, active = well fitted inhibition curve with a large enough effect; inconclusive = small, poorly fitted or top-dose-only effect; inactive = flat fitted curve, though single readings scatter.
Labels: y (active), n (inactive)

COc1cc2c(NC3CCN(C)CC3)nc(N3CCCN(C)CC3)nc2cc1OCCCN(C)C n
CCC(=O)NS(=O)(=O)c1ccc(-c2c(-c3ccccc3)noc2C)cc1 n
C[C@@H](O)[C@@H]1NC(=O)[C@H](CCCCN)NC(=O)[C@@H](Cc2c[nH]c3ccccc23)NC(=O)[C@H](Cc2ccccc2)NC(=O)[C@@H](NC(=O)[C@H](N)Cc2ccccc2)CSSC[C@@H](C(=O)N[C@H](CO)[C@@H](C)O)NC1=O n
Cc1c(F)cccc1NC(=O)Nc1ccc(Cl)c(S(=O)(=O)[C@H]2CCCNC2)c1O n
CNCCn1c(=O)c2cc(OC)c(OC)cc2c2cnc3cc4c(cc3c21)OCO4 y
N=C1CCCN1Cc1[nH]c(=O)[nH]c(=O)c1Cl n

###

- ASSAY_TARGET: Retinaldehyde dehydrogenase 3 (Homo sapiens)
- ASSAY_REMARKS: qHTS for Inhibitors of the Aldehyde Dehydrogenase Family (ALDH1A3) Primary screen (AID 2061315);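 note: plate controls were DMSO vehicle for no effect and reference inhibitor for full effect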
- SETUP_CONDITIONS: ALDH inhibition qHTS; series mostly up to 56 µM
Records with an inconclusive call do not appear. The source made the active and inactive calls. Calls follow the shape of the dose curve; as a rule, active = well fitted inhibition curve with a large enough effect; inconclusive = small, poorly fitted or top-dose-only effect; inactive = no such curve, though single readings can be large or run the other way.

COMPOUND	activity change, negative = inhibition
CN(C)c1cccc(NS(=O)(=O)c2ccc(NC(=O)Cc3ccc(Cl)c(Cl)c3)cc2)c1	inactive
CO[C@H]1C[C@@H]2CC[C@@H](C)[C@@](O)(O2)C(=O)C(=O)N2CCCC[C@H]2C(=O)O[C@H]([C@H](C)C[C@@H]2CC[C@@H](OC(=O)C(C)(CO)CO)[C@H](OC)C2)CC(=O)[C@H](C)/C=C(\C)[C@@H](O)[C@@H](OC)C(=O)[C@H](C)C[C@H](C)/C=C/C=C/C=C/1C	inactive
O=C(CNC(=O)C1CCCC1)OC(C(=O)Nc1cc(C(F)(F)F)ccc1Cl)c1ccccc1 (stereo not drawn)	inactive

###

In this section we review reported viability (% of control) values for a set of compounds.
- ASSAY_REMARKS: BET inhibitor-based combinations targeting novel dependencies in MECOM-rearranged (r) AML: UCSD-AML1 cell line (AID 2202235);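 note: plate controls were DMSO vehicle wells for no effect and blank wells for full effect; nearly all actives have a fitted effect of over 40% in size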
- SETUP_CONDITIONS: UCSD-AML1 AML cells viability, CellTiter-Glo, 48 h; series mostly up to 46 µM
Records with an inconclusive call do not appear. Activity calls are given as the source filed them. Calls follow the shape of the dose curve; as a rule, active = well fitted inhibition curve with a large enough effect; inconclusive = small, poorly fitted or top-dose-only effect; inactive = no such curve, though single readings can be large or run the other way.
MEASURED_ATTRIBUTE: viability (% of control)

CC(C)(S)[C@@H](N)C(=O)O 112% [at 5.12 µM] (inactive)
CCn1c(=O)c(-c2ccc(-c3cncc(C)n3)cc2Cl)cc2cnc(NCCC3CCN(C)CC3)nc21 99.8% [at 5.12 µM] (inactive)
O=C(/C=C/c1ccc(/C=C/C(=O)Nc2ccc(C3=NCCN3)cc2)cc1)Nc1ccc(C2=NCCN2)cc1 115% [at 5.12 µM] (inactive)
CN1CCN(C(=O)[C@H]2[C@@H](C(=O)O)[C@H]3CC[C@@H]2O3)CC1 104% [at 8.46 µM] (inactive)
Cn1cc(C[C@@H](N)C(=O)O)c2ccccc21 112% [at 8.46 µM] (inactive)
COc1cc2c(cc1OC)CN(CCc1ccc(-n3nnc(-c4cc(OC)c(OC)cc4NC(=O)c4cc(=O)c5ccccc5o4)n3)cc1)CC2 106% [at 0.315 µM] (inactive)
Cc1cc(O)cc2c1[C@]1(C)CC[C@H]3C(C)(C)CCC[C@]3(C)[C@H]1C2 14.8% [at 5.12 µM] (inactive)
